biological target: T1, TRAIL-R2/Fc fusion protein (R & D Systems) (UniProt O14763 54-182, limits assumed); assay: TRAIL-R2 phage ELISA
T1 construct: not shown: Fc part of the bought fusion; captured with anti-human IgG Fc antibody
T1 sequence (O14763 54-182 limits assumed): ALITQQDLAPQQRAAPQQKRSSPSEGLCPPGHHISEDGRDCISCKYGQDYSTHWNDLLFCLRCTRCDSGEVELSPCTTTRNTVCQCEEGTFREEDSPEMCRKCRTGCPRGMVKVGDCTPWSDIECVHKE
Measured attribute: binding result

Binder	Measured attribute	Recorded measurement
10D9 (designed binder, Lower case q in the BC loop is a TAG codon read as glutamine in the suppressor strain) IEVKDVTDTTALITWSPPLFCCQKTGCELTYGIKDVPGDRTTIDLTEDENQYSIGNLKPDTEYEVSLICFKLTGFLYSKETFTT	binding result	binds
5B10 (designed binder) IEVKDVTDTTALITWSPCLFVCLRTGCELTYGIKDVPGDRTTIDLTEDENQYSIGNLKPDTEYEVSLICRRGDMSGAPAKETFTT	binding result	binds
7G11 (designed binder) IEVKDVTDTTALITWAKPSIVNGFISGCELTYGIKDVPGDRTTIDLTEDENQYSIGNLKPDTEYEVSLICDKCFGAMKSKETFTT	binding result	binds
